Attribution: the nanobody polyreactivity screen of Harvey et al. (2022)

- test_method_notes: yeast display, Sf9 membrane polyspecificity reagent, FACS + sequencing; frameworks hold sequencing errors
experimental_readout: polyreactivity (PSR sort gate)

Here's what some known entries look like.
>  <sequence_code>
QVQLVESGGGLVQAGGSLRLSCAASGYTFSYYAMGWYRQAPGKERELVAAISWSGGSTYYADSVKGRFTISRDNAKNTVYLQMNSLKPEDTAFYYCAAKPWRGTLMRYGYWGQGTQVTVSS

>  <polyreactivity (PSR sort gate)>
high polyreactivity

$$$$
>  <sequence_code>
QVQLVESGGGLVPAGGSLRLSCAASGRTLGYNAMGWYRQAPGKERELVAAISRGDSTNYADSVKGRFTISRDNAKNTVYLQMNSLKPEDTAVYYCAAAFPRYRSRAIRVDYWGQGTQVTVSS

>  <polyreactivity (PSR sort gate)>
high polyreactivity

$$$$
>  <sequence_code>
QVQLVESGGGLVQAGGSLRLSCAASGSTFTYYTMGWYRQAPGKERELVAAITSGTSTNYADSVKGRFTISRDNAKNTVYLQMNSLKPEDTAVYYEYDYWGQGTQVTVSS

>  <polyreactivity (PSR sort gate)>
low polyreactivity

$$$$
>  <sequence_code>
QVQLVESGGRLVQAGGSLRLSSAASGRTFTSYAMGWYRQSPGKERELVAAISRRGGSTYYADSVKGRFTISRDNAKNTVYLQMNSLKPEDTAVYYCNKATRYYLVELNYWGQGTQVTVSS

>  <polyreactivity (PSR sort gate)>
high polyreactivity

$$$$
>  <sequence_code>
QVQLVESGGGLVQAGGSLRLSCAASGSIFRYYAMGWYIQAPGKEMELVAAITSSGGSTYYADSVKGRFTISRDNAKNTVYLQMNSLKPEDTAVYDCNARHVRYSRRENDYWGQGTQGTVSS

>  <polyreactivity (PSR sort gate)>
high polyreactivity

$$$$

## Task Given the entry "QVQLVESGGGLVQAGGSLRLSCAASGSIFARYAMGWYIQAPGKEREFVAAISRSGGSTYYADSVKGRFTISRDNAKNTVYLQMNSLKPEDTAVYYCAARGGTKYDYWGQGTQVTVSS" , report its measured polyreactivity (PSR sort gate).
## Result high polyreactivity

## Task Given the entry "QVQLVESGGGLVQAGGSLRLSCAASGFIFWANAMGWYRQAPGKERELVAAITWRNGRTYYADSVKGRFTISRDNAKNTVYLQMNSLKPEDTAVYYCAAPGSYARGTGRDYWGQGTQVTVSS" , report its measured polyreactivity (PSR sort gate).
## Result high polyreactivity

## Task Given the entry "QVQIEESGGGLVQAGGSLRLSCAASGRIFSLNVMGWSRQAPRKERELVATIRGRGTSTYYADSVKGRFTISRDNAKNTVYLQMNSLKPEDTAVYYCAASGHGAYGYWGQGTQVTVSS" , report its measured polyreactivity (PSR sort gate).
## Result low polyreactivity

## Task Given the entry "QVQLVESGGVLVQALGSLRLSCAASVITIDNYVMGWYRQAPGKERELVAAISIGGGTYYADSVKGRFTISRDNAKNTVYLQMNSRKPEDSAVYYCKARSDVSYWWGGYWGQGTQVTVSS" , report its measured polyreactivity (PSR sort gate).
## Result low polyreactivity

## Task Given the entry "QVQLVESGGGLVQAGGSLRLSCAASGRIFGWYAMGWYRQAPGKERELVAAIRWSGGSTYADSVKGRFTISRDNAKNTVYLQMNSLKPEDTAVYYCAATYGSYRGVRYYWGQGTQVTVSS" , report its measured polyreactivity (PSR sort gate).
## Result high polyreactivity

## Task Given the entry "QVQLVESGGGLVQAGGSLRLSCAASGFIFARNAMGWYRQAPGKERELVAVISTRGRTYYADSVKGRFTISRDNAKNTVYLQMNSLKPEDTAVYYCNADKVIGYDYWGQGTQVTVSS" , report its measured polyreactivity (PSR sort gate).
## Result high polyreactivity

====

- test_method_notes: yeast display, Sf9 membrane polyspecificity reagent, FACS + sequencing; frameworks hold sequencing errors
experimental_readout: polyreactivity (PSR sort gate)

>  <sequence_code>
QVQLVESGGGLVQAGGSLRLSCAASGSTFGGNDMGWYRQAPGKERELVAAISSGTSTNYADSVKGRFTISRDNAKNTVYLQMNSLKPEDTAVYYCAAVYWVLWQGSTYGYWGQGTQVTVSS

>  <polyreactivity (PSR sort gate)>
low polyreactivity

$$$$
>  <sequence_code>
QVQLVESGGGLVQAGGSLRLSCAASGSTFYFYAMGWYRQAPGKERELVAAISQSGGTTYYADSVKGRFTISRDNAKNTVFLQMNSLKPEDTAVYYCNADTDTWYTEYDYWGQGTQVTVSS

>  <polyreactivity (PSR sort gate)>
low polyreactivity

$$$$
>  <sequence_code>
QVQLVESGGGLVQAGGSLRLSCAASGTNVMGWYRQAPGKERELVAAISGSGGSTYYADSVKGRFTISRDNAKNSVYFQMNSLKPEDSAVYYCAADSIQYTARPYDYWGQGTQVTVSS

>  <polyreactivity (PSR sort gate)>
low polyreactivity

$$$$
>  <sequence_code>
QVHLVESGGGLVQAGGSLRLSCAASGSTFYVYAMGWYRQAPGKERELVAAISTSTGNTYYADSVKGRFTISRDNAKNTVYLQMNSLKPEDSAVYDCANSGSSSHYYSWGQGTQVTVSS

>  <polyreactivity (PSR sort gate)>
low polyreactivity

$$$$
>  <sequence_code>
QVQLVESGGGLVQAGGILRLSCAASGRTVVSYAMGWYRQQPGKGRELVAVITGGTGNTYYADSVKGRFTISRDNEKNTVYLQMNSLKREDTAVYYCNARGCYYKFRYPLYYWGQGTQVTVSS

>  <polyreactivity (PSR sort gate)>
high polyreactivity

$$$$

## Task Given the entry "QVQLVESGGGLVQAGGSLRLSCAASGRTLLAYAMGWYRQAPGKEREFVAAISSRGVRTYYADSVKGRFTISRDNAKNTVYLQMNSLKPEDTAVYYCATRGTKSIKDVPGFRYGYWGQGTQVTVSS" , report its measured polyreactivity (PSR sort gate).
## Result high polyreactivity

## Task Given the entry "QVQLVESGGGLVQAGGILRLSCAASGSTFYYNTMGWYRQAPGKERELVAAISWSGGSTYYADSVKGRFTISRDNAKTTVYLQINSLKPEDTAVYYSNKLRHISRTLYGYWGQGTQVTVSS" , report its measured polyreactivity (PSR sort gate).
## Result high polyreactivity

## Task Given the entry "QVQLVESGGGLVQAGGSLRLSCAASGIIFDFYTMGWYRQAPGKERELVAAINSSGGSTYYADSVKGRFTISRDNAMNTVYLHMNSLKPADTAVYYCNAEYLFFWGQYDYWGQGTQVTVSS" , report its measured polyreactivity (PSR sort gate).
## Result high polyreactivity

## Task Given the entry "QVQLVESGGGLVQAGGSLRLSCAASGSTFPYYAMGWSRQAPGKERELVAAISGSGGTTYYADSVKGRFTISRDNAKNTVYLQMNSLKPEYTAVYYCAVDIGVGYGYYYWGQGTQVTVSS" , report its measured polyreactivity (PSR sort gate).
## Result low polyreactivity

## Task Given the entry "QVQLVESGGGLVQAGGSLRLSCAASGRTFSYYAMGWYRQAPGKERELVAAITSSGGRTTYADSVKGRFTISRDNAKNTVYLQMNSLKPEDTAVYYCAARHTYQGPGTYPMYYWGQGTQVTVSS" , report its measured polyreactivity (PSR sort gate).
## Result high polyreactivity

## Task Given the entry "QVQLVESGGGLVQAGGSLRLICAASGNIFVPNAMGWYREAPGKEWELVAAIRRGGSTNYADSVKGRFTISRDNAKTTVYFQMNSLKPEDTAVYYCAKSRVSFTDLEGYYWGQGTQVTVSS" , report its measured polyreactivity (PSR sort gate).
## Result low polyreactivity

## Task Given the entry "QVQLVESGGGLVQAGGSLRLSCAASGRILLRNVMGLYRPAPGKERELVAVITRTGITYYADSVKGRFTISRDNAKNTVYLQMISLNPEDTAVYYCAAGLPTYEHDYWGQGTQVTVSS" , report its measured polyreactivity (PSR sort gate).
## Result low polyreactivity

## Task Given the entry "QVQLVESGGGLVQSGGSLRLSCAASGSTSINYAMGWYRQAPGKERELVATISRGGSTTYADSVKGRFTISRDNAKNTVYLQMNSLKPEATAVYYCAKDRYPADEDYWGQGTQVTVSS" , report its measured polyreactivity (PSR sort gate).
## Result low polyreactivity

## Task Given the entry "QVQLVESGGGLVQAGGSLRLSCAASGSTFYPYGMGWYRHAPGKERDLVAAISKRGGSTYYADSVKGRFTISRDNAKNTVYLQMNSLKPEDTAVYYCAAYGAGKFWAEHNYWGQGTQVTVSS" , report its measured polyreactivity (PSR sort gate).
## Result high polyreactivity

## Task Given the entry "QVQHVESGGGLVQAGGSLRLSCAASGRTFYRYAMGWYRQAPGKERELVAAISGSGTSTSYADSVKGRFTISRDNAKNSVYLQMNSLKPEDTAVYYCAATYYVYYYSRYYFWGQGTQVTVSS" , report its measured polyreactivity (PSR sort gate).
## Result high polyreactivity

## Task Given the entry "QVQLVESGGGLVQAGGSLRLSCAASGSTFYFNAMGWYRQAPGKERELVATISDNDGSTNYADSVKGRFTISRDNAKNTVYLLMISLKPEDTGVYYCNADWYYYYEEDDYWGQGTQVTVSS" , report its measured polyreactivity (PSR sort gate).
## Result low polyreactivity

## Task Given the entry "QVQLVESGGGLVQAGGSLRISCAASGFTFDTNAMGWYRQAPGKERELVAAISRIGGRTYADSVKGRFTISRDNAKNTVYLQMNSLKPEDTAVYYCADDRSSAYRWRSAGYYKYDYWGQGTQVTVSS" , report its measured polyreactivity (PSR sort gate).
## Result low polyreactivity
